Target: human thrombin (Homo sapiens)
Test: inhibition of the amidolytic activity of thrombin (chromogenic substrate S-2238)
Assay type: biochemical
Settings: human thrombin 0.5 nM, substrate S-2238, pH 7.8, room temperature
Experimental: A differential inhibition of thrombin and other serine proteases by the above compounds is desirable in order to obtain compounds having as high a specificity as possible and at the same time to avoid possible side-effects. Specific chromogenic peptide substrates can be used to determine the inhibition of the catalytic activity of the above proteases. The inhibition of the amidolytic activity of thrombin and trypsin by the above guanidines was determined as described hereinafter. […]
Readout type: Ki (µM)

> print(dat)
                                   molecule  readout.type  reading.unit  test.value
1  CCCCC(=O)N[C@@H](CC(=O)NC[C@@H]1CCCN(C(=N)N)C1)C(=O)N(CC(=O)O)C1CC1 [Example 14a]            Ki            µM       0.019

a: CC(=O)N[C@@H](Cc1c[nH]c2ccccc12)C(=O)N[C@@H](CC(=O)NC[C@@H]1CCCN(C(=N)N)C1)C(=O)N(CCNC(=O)c1cnccn1)C1CC1 [Example 21c]
b: N=C(N)N1CCC[C@@H](CNC(=O)C[C@H](NC(=O)OCC2CCCCC2)C(=O)N(CC(=O)O)C2CC2)C1
Query: Lower value for measured Ki? Options: a , b Mark your selection by writing its label.
Reply: a
(a: 0.0061 µM, b: 0.017 µM)
